Data provenance is ChEMBL document CHEMBL4680073.

# Test system: Staphylococcus simulans
# assay: Antibacterial activity against Staphylococcus simulans 22 assessed as inhibition of bacterial growth incubated for 16 hrs in presence of C15-PP by broth microdilution assay
# Format: functional, organism-based
Activity calls are given as the source filed them. No cut-off for these calls is given here. Bridge positions count the residues as written; N and C are the ends. Square brackets hold non-standard residues; d marks the D form. Peptide text beside a SMILES is read from it. * marks the point of attachment. Tetradecenoyl(2E,13-Me) = CC(C)CCCCCCCCC/C=C/C(=O)*; d(aThr) = C[C@@H](O)[C@@H](N)C(=O)O; dPip = O=C(O)[C@H]1CCCCN1; Dap = NC[C@H](N)C(=O)O
measured.quantity: Activity

compound=CCCCCCCCCC(=O)N[C@@H](Cc1c[nH]c2ccccc12)C(=O)N[C@H](CC(N)=O)C(=O)N[C@@H](CC(=O)O)C(=O)N[C@H]1CNC(=O)[C@@H](Cc2c[nH]c3ccccc23)NC(=O)[C@H](CCC(=O)O)NC(=O)[C@@H](CO)NC(=O)CNC(=O)[C@H](CC(=O)O)NC(=O)[C@@H](C)NC(=O)[C@H](CC(=O)O)NC(=O)[C@H](CCCN)NC(=O)CNC1=O observed_result=Active
compound=CCCCCCCCCC(=O)N[C@@H](Cc1c[nH]c2ccccc12)C(=O)N[C@H](CC(N)=O)C(=O)N[C@@H](CC(=O)O)C(=O)N[C@H]1CNC(=O)[C@H]2CCCN2C(=O)[C@H](CCC(=O)O)NC(=O)[C@@H](CO)NC(=O)CNC(=O)[C@H](CC(=O)O)NC(=O)[C@@H](C)NC(=O)[C@H](CC(=O)O)NC(=O)[C@H](CCCN)NC(=O)[C@H]2CCCCN2C1=O observed_result=Active
compound="CC[C@H](C)[C@@H]1NC(=O)[C@@H]([C@@H](C)O)NC(=O)CNC(=O)[C@H](CC(=O)O)NC(=O)CNC(=O)[C@H](CC(=O)O)NC(=O)CNC(=O)[C@H]2CCCCN2C(=O)[C@@H](NC(=O)[C@H](CC(=O)O)NC(=O)/C=C/CCCCCCCCCC(C)C)CNC(=O)[C@@H]2CCCN2C1=O ({Tetradecenoyl(2E,13-Me)}-D[Dap][dPip]GDGDG[d(aThr)]IP; lactam 2-C)" observed_result=Active
